Target: HDAC3:SMRT complex (Homo sapiens, UniProt O15379+Q9Y618)
Construct: Full-length HDAC3, and residues 350–480 of SMRT were cloned into pcDNA3 vectors; residues 350–480 of SMRT were cloned into pcDNA3 vectors; FLAG tag with TEV protease cleavage site (cleaved yes); made in house; host or cells: HEK293F cells (co-transfection, pcDNA3)
Assay: Activation of HDAC3:SMRT deacetylase activity by inositol phosphates (BOC-Lys-AMC assay)
Assay type: biochemical
Details: BOC-Lys-AMC assay; titration / maximal activation
parameter: HDAC3 activation relative to maximal Ins(1,4,5,6)P4-stimulated activity

| compound | result |
| --- | --- |
| O=P(O)(O)O[C@H]1[C@H](OP(=O)(O)O)[C@H](O)[C@H](O)[C@@H](O)[C@@H]1OP(=O)(O)O [Ins(1,5,6)P3] | 60% |

Please look at the following compound next.
Prompt: Return reported HDAC3 activation relative to maximal Ins(1,4,5,6)P4-stimulated activity; argument: O=P(O)(O)OC1C(O)C(O)C(O)C(OP(=O)(O)O)C1OP(=O)(O)O (stereo not drawn) [Ins(4,5,6)P3]
Response: 85%

* * *

Target: HDAC3:SMRT complex (Homo sapiens, UniProt O15379)
Construct: Full-length HDAC3, and residues 350–480 of SMRT were cloned into pcDNA3 vectors; residues 350–480 of SMRT were cloned into pcDNA3 vectors; FLAG tag with TEV protease cleavage site (cleaved yes); made in house; host or cells: HEK293F cells (co-transfection, pcDNA3)
Sequence (O15379 whole entry, the tested form may be a part): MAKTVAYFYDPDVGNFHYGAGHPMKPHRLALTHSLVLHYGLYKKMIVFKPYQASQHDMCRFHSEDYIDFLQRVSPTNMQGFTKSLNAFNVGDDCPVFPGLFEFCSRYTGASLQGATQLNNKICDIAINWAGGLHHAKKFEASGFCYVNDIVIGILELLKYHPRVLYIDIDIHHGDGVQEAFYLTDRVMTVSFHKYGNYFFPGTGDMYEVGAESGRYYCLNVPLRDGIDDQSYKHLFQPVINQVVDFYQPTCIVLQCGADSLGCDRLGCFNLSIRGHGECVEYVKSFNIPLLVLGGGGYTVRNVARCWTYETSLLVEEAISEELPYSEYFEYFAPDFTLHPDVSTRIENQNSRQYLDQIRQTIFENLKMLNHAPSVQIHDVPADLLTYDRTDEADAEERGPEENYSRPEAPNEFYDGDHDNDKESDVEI
Sequence (Q9Y618 350-480, further chain): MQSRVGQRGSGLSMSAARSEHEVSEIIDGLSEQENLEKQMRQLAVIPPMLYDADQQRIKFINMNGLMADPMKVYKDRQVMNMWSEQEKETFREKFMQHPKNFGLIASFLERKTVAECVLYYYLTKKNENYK
Assay: Activation of HDAC3:SMRT deacetylase activity by inositol phosphates (BOC-Lys-AMC assay)
Assay type: biochemical
Conditions: BOC-Lys-AMC assay; one-site binding fit of HDAC activity vs inositol phosphate concentration; read-out: Kdapp (apparent Kd from activation titration)
parameter: Kd

| molecule | Kd |
| --- | --- |
| O=P(O)(O)O[C@@H]1[C@@H](OP(=O)(O)O)[C@H](OP(=O)(O)O)[C@@H](O)[C@@H](O)[C@H]1OP(=O)(O)O [Ins(1,4,5,6)P4, inositol 1,4,5,6-tetrakisphosphate] | 10 µM |

Prompt: For the molecule shown here, O=P(O)(O)O[C@H]1[C@H](OP(=O)(O)O)[C@@H](OP(=O)(O)O)[C@H](OP(=O)(O)O)[C@@H](OP(=O)(O)O)[C@H]1OP(=O)(O)O [InsP6, inositol hexaphosphate] , give the reported Kd.
Response: 0.6 µM

* * *

Biological target: HDAC1:MTA1 complex (Homo sapiens, UniProt Q13330+Q13547)
Construct: Full-length HDAC1 and residues 162–354 of MTA1 were cloned into pcDNA3 vectors; residues 162–354 of MTA1 were cloned into pcDNA3 vectors; FLAG tag with TEV protease cleavage site (cleaved yes)
Sequence (Q13547 whole entry, the tested form may be a part): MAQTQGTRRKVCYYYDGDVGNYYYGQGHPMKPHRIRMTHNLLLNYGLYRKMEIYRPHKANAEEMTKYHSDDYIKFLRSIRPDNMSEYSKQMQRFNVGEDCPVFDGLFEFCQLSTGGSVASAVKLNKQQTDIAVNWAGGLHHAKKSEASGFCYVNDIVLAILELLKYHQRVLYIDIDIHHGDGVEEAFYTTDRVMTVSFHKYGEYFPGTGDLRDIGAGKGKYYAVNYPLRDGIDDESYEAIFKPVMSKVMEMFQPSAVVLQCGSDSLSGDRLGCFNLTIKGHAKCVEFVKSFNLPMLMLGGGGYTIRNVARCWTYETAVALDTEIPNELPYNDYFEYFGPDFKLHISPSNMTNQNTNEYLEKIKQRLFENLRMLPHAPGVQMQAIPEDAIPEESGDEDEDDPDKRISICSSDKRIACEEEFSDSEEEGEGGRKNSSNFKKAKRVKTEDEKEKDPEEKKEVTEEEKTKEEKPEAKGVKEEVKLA
Sequence (Q13330 162-354): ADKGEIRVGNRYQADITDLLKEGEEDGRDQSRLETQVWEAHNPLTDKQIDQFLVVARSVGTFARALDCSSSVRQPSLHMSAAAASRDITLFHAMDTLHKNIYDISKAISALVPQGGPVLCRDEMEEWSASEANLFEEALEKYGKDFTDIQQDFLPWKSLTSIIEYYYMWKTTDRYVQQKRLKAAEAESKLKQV
Test: Activation of HDAC1:MTA1 deacetylase activity by inositol phosphates (BOC-Lys-AMC assay)
Details: read-out: Kdapp (apparent Kd from activation titration)
parameter: Kd (µM)
Give bare numbers, in µM.

As a guide, the following entries are already answered.
| compound | Kd (µM) |
| --- | --- |
| O=P(O)(O)O[C@@H]1[C@@H](OP(=O)(O)O)[C@H](OP(=O)(O)O)[C@@H](O)[C@@H](O)[C@H]1OP(=O)(O)O [Ins(1,4,5,6)P4, inositol 1,4,5,6-tetrakisphosphate] | 4.7 |
| O=P(O)(O)O[C@H]1[C@H](OP(=O)(O)O)[C@@H](OP(=O)(O)O)[C@H](OP(=O)(O)O)[C@@H](OP(=O)(O)O)[C@H]1OP(=O)(O)O [InsP6, inositol hexaphosphate] | 4 |

Prompt: Field request: Kd | item: O=P(O)(O)OC1[C@@H](OP(=O)(O)O)[C@H](OP(=O)(O)O)C(O)[C@H](OP(=O)(O)O)[C@H]1OP(=O)(O)O (stereo partly drawn)
Response: 2.6

* * *

Target: HDAC3:SMRT complex (Homo sapiens, UniProt O15379+Q9Y618)
Construct: Full-length HDAC3, and residues 350–480 of SMRT were cloned into pcDNA3 vectors; residues 350–480 of SMRT were cloned into pcDNA3 vectors; FLAG tag with TEV protease cleavage site (cleaved yes)
Experiment: Activation of HDAC3:SMRT deacetylase activity by inositol phosphates (BOC-Lys-AMC assay)
Settings: BOC-Lys-AMC assay; one-site binding fit of HDAC activity vs inositol phosphate concentration; read-out: Kdapp (apparent Kd from activation titration)
Please note: Kd exactly at 30 µM is No. Only values below 30 µM get Yes.

| compound | experimental target | discrete label |
| --- | --- | --- |
| O=P(O)(O)OC1[C@H](O)[C@H](OP(=O)(O)O)C(OP(=O)(O)O)[C@H](OP(=O)(O)O)[C@H]1O (stereo partly drawn) | HDAC3:SMRT complex (Homo sapiens, UniProt O15379+Q9Y618) | Yes |
| O=P(O)(O)O[C@H]1[C@H](OP(=O)(O)O)[C@@H](OP(=O)(O)O)[C@@H](O)[C@@H](O)[C@@H]1OP(=O)(O)O | HDAC3:SMRT complex (Homo sapiens, UniProt O15379+Q9Y618) | No |
| O=P(O)(O)O[C@H]1[C@H](OP(=O)(O)O)[C@H](O)[C@H](O)[C@@H](O)[C@@H]1OP(=O)(O)O | HDAC3:SMRT complex (Homo sapiens, UniProt O15379+Q9Y618) | Yes |
| O=P(O)(O)OC1C(O)C(O)C(O)C(OP(=O)(O)O)C1OP(=O)(O)O (stereo not drawn) | HDAC3:SMRT complex (Homo sapiens, UniProt O15379+Q9Y618) | No |

Next, consider the following compound.
Prompt: Does the reported Kd of the following compound sit strictly below 30 µM? O=P(O)(O)OC1[C@@H](OP(=O)(O)O)[C@H](OP(=O)(O)O)C(O)[C@H](OP(=O)(O)O)[C@H]1OP(=O)(O)O (stereo partly drawn)
Response: Yes
